# system_under_test: Sortase family protein (Staphylococcus aureus, UniProt Q9S446)
# Sequence (Q9S446 whole entry): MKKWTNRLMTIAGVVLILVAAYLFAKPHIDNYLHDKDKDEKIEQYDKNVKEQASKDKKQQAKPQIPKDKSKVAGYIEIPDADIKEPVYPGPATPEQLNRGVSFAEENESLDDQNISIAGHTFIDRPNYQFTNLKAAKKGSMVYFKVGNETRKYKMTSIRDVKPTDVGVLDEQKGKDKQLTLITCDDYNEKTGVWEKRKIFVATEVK
# experiment: Inhibition of Staphylococcus aureus SrtA deltaN24 mutant assessed as decrease in transpeptidation of IsdA (64 to 323 residues) incubated for 1.25 hrs in presence of NH2-Gly3 nucleophile by SDS-PAGE method
pIC50: −log10 of the molar value.
measurement_kind: pIC50

CC(C)=CC[C@H](O)c1cc(O)c2c(c1O)C(=O)C=CC2=O = 5.30
CC(C)C=CC(=O)c1cc(O)c2c(O)ccc(O)c2c1O = 5.30
